The reader will find reported IC50 values listed item by item below.
biological target: hLPAR1 (human lysophosphatidic acid receptor 1) (Homo sapiens, UniProt Q92633); experiment: FLIPR assay of intracellular calcium increase induced by activation of hLPAR1 expressed in CHO-K1 cells; type: cell-based; conditions: CHO-K1 cells expressing hLPAR1, agonist oleoyl-L-α-lysophosphatidic acid 1 μM; read-out: LPAR1 IC50
Sequence (Q92633 whole entry): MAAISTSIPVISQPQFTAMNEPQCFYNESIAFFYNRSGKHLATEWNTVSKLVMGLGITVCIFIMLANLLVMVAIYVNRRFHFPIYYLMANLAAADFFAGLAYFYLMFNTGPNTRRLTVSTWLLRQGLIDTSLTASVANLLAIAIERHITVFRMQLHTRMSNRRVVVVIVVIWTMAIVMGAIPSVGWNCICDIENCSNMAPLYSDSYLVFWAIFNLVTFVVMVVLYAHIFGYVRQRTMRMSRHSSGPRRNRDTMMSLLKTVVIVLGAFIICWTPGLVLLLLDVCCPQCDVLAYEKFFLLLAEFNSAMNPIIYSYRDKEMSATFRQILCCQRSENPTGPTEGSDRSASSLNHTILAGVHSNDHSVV
Assay Readout: IC50

{"columns": ["Compound", "Assay Readout", "Observed"],
 "data": [
  ["CN(CC1CC1)C(=O)OCc1c(-c2ccc(O[C@H]3CCC[C@H](C(=O)O)C3)c(F)n2)cnn1C (racemic)", "IC50", "50 to 300 nM"],
  ["CN(C(=O)COc1c(-c2ccc(O[C@H]3CCC[C@H](C(=O)O)C3)c(N3CCOCC3)n2)cnn1C)C1CCC1 (racemic)", "IC50", "300 to 10000 nM"],
  ["Cc1nc(-c2c(F)nn(C)c2COC(=O)N(C)C2CCCC2)ccc1O[C@H]1CCC[C@H](C(=O)O)C1", "IC50", "< 50 nM"],
  ["Cc1nc(-c2cnn(C)c2COC(=O)N(C)CC2COC2)ccc1O[C@H]1CCC[C@H](C(=O)O)C1 (racemic)", "IC50", "300 to 10000 nM"],
  ["CN(C(=O)OCc1c(-c2cnc(O[C@H]3CCC[C@H](C(=O)O)C3)c(O)n2)cnn1C)C1CCCC1 (racemic)", "IC50", "300 to 10000 nM"],
  ["Cc1nc(-c2cnn(C)c2COC(=O)N(C)C2CCCC2)cnc1O[C@H]1CCC[C@H](C(=O)O)C1 (racemic)", "IC50", "< 50 nM"],
  ["Cc1nc(-c2ncoc2COC(=O)N(C)C2CCCC2)ccc1O[C@H]1CCC[C@H](C(=O)O)C1 (racemic)", "IC50", "300 to 10000 nM"],
  ["CN(C(=O)OCc1c(-c2ccc(C3CCC[C@H](C(=O)O)C3)cc2)cnn1C)C1CCCC1 (mixture of isomers)", "IC50", "300 to 10000 nM"],
  ["CN(C(=O)OCc1c(-c2ccc(O[C@H]3CCC[C@H](C(=O)O)C3)c(OCCO)n2)cnn1C)C1CCC1 (racemic)", "IC50", "300 to 10000 nM"]
]}
